Ref: the supplement of paper PMC10567573

B1: ZNF649 (parent)
chain: LVAHQRYHTGKTPFVCPECGQPCS

variants of: B1; experiment: protein stability index of a GFP-peptide fusion (GPS, HEK-293T) (PSI 1-6); higher = more stable; settings: c terminus: a fixed tail appended;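 note: lentivirally expressed fusions sorted by FACS into six bins by GFP to DsRed ratio, PSI derived from sequencing read proportions per bin multiplied by bin number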
# reported protein stability index; entries follow
API note: the answer field is a bare number with no unit suffix.

In the examples that follow, each entry is paired with its recorded protein stability index.
INPUT: Query (variant): LVAHKRYHTGKTPFVCPECGQPCS [Q5K] ; field requested: protein stability index
OUTPUT: 3.03

INPUT: Quick check: protein stability index of LVAHQRYHTGKTPFVCPECEQPCS [G20E] ?
OUTPUT: 3.07

INPUT: Query (variant): LVAHTRYHTGKTPFVCPECGQPCS [Q5T] ; field requested: protein stability index
OUTPUT: 3.07

---
INPUT: Look at this variant and give its reported protein stability index. LVAHQRYHTTKTPFVCPECGQPCS [G10T]
OUTPUT: 3.01

INPUT: Which protein stability index is listed for LVAHQRYHTGKTPFVQPECGQPCS [C16Q] ?
OUTPUT: 3.03

INPUT: Fill blank: measured protein stability index of the variant LVAHQRYHTGPTPFVCPECGQPCS [K11P] is ____.
OUTPUT: 3.06

INPUT: What does the record list as protein stability index for LVAHQRYHTGKTPFGCPECGQPCS [V15G] ?
OUTPUT: 3.03

INPUT: Name the recorded protein stability index for LVAHQRYHTGKTPFVGPECGQPCS [C16G] .
OUTPUT: 2.91

INPUT: Given LVAHQRYHTGKTPFVCPECMQPCS [G20M] , state its recorded protein stability index.
OUTPUT: 3.03

INPUT: I'd like to know its protein stability index. The variant in question is LVAHQRLHTGKTPFVCPECGQPCS [Y7L]
OUTPUT: 2.93

INPUT: Given the entry LVAHQRYHTGKTAFVCPECGQPCS [P13A] , report its measured protein stability index.
OUTPUT: 2.94

INPUT: Request the reported protein stability index associated with LVAHQRYHTGWTPFVCPECGQPCS [K11W]
OUTPUT: 2.91

INPUT: Requested field: protein stability index. Item: LVAHQRYHTGKYPFVCPECGQPCS [T12Y]
OUTPUT: 3.02

INPUT: Record request: protein stability index value, item LVAHQRYHTGKRPFVCPECGQPCS [T12R]
OUTPUT: 2.91

INPUT: Which protein stability index value is on record for LVAHRRYHTGKTPFVCPECGQPCS [Q5R] ?
OUTPUT: 3.06

INPUT: Name the reported protein stability index value associated with the variant LVAHQRYHTGYTPFVCPECGQPCS [K11Y]
OUTPUT: 3.07
